Where these numbers come from: PubChem BioAssay (NCI)

tested on: OVCAR-4 ovarian; experiment: NCI tumour cell line growth inhibition, 48 h
measured_metric: TGI

compound="CC[C@@H]1NC(C(=O)OC)Cc2c1[nH]c1ccccc21 (some centres undefined)" data_value="> 100 µM"
compound=CCCCCCCCCCCC[N+]12CC[N+](CCN)(CC1)CC2 data_value="> 100 µM"
compound="CCOC(=O)/C=C1/C(CCCOCc2ccccc2)C2CCCC23CC2(CCN13)OCCO2 (centres undefined)" data_value="> 100 µM"
compound=CCOC(=O)CNC(=O)NC12CC3CC(CC(C3)C1)C2 data_value="> 550 µM"

----------
test system: CCRF-CEM leukemia; experiment: NCI tumour cell line growth inhibition, 48 h; in the data active = GI50 below about 0.43 µM; inactive = the rest
Outcome codes: class 1 (active), class 0 (inactive)

compound=Cc1nc2sccn2c1-c1nc2sccn2c1/C=C1/C(=O)Nc2ccccc21 discrete_label="class 0"
compound="CC[C@]1(O)C[C@H]2CN(CCc3c([nH]c4ccccc34)C(C(=O)OC)(c3cc4c(cc3OC)N(C)[C@H]3[C@@](O)(C(=O)OC)[C@H](OC(C)=O)[C@]5(CC)[C@@H]6C[C@@H]6CN6CC[C@]43[C@@H]65)C2)C1 (stereo partly drawn)" discrete_label="class 1"
compound=COc1cc2c(cc1OCCCN1CCN(CCCOc3cc4c(cc3OC)C(=O)N3CC(F)(F)C[C@H]3C=N4)CC1)N=C[C@@H]1CC(F)(F)CN1C2=O discrete_label="class 0"
compound=O=c1[nH]c(-c2cccc(F)c2)cc2cc(F)ccc12 discrete_label="class 1"
compound=Nc1c(C(=O)Nc2ccccn2)sc2nc3c(cc12)C(=O)CCC3 discrete_label="class 0"
compound="COc1cc2c(cc1OCCCCCN1CCN(c3ncnc4ccccc34)CC1)N=CC1CCCN1C2=O (stereo not drawn)" discrete_label="class 1"
compound=CCN(CCNS(C)(=O)=O)c1ccc(N)c(C)c1 discrete_label="class 0"
compound=NNc1ncnc2nc[nH]c12 discrete_label="class 0"

----------
TGI values by entry
system: PC-3 prostate; test: NCI tumour cell line growth inhibition, 48 h
measured_metric: TGI

compound=CN1CCN(Cc2cc3c(nn2)-c2ccccc2C3=O)CC1 measured_metric=TGI data_value="> 100 µM"
compound="COC(=O)/C=C/c1cc(OC(C)=O)c2c(c1)C(C(=O)OC)C(c1ccc(OC(C)=O)c(OC(C)=O)c1)O2 (stereo unspecified)" measured_metric=TGI data_value="> 49 µM"
compound=C=C1C(=O)[C@@]23CC[C@@H]4[C@@]5(C)CCC[C@@]4(OC5=O)[C@@]2(C)CC[C@@H]1C3 measured_metric=TGI data_value="5.31 µM"
compound=CC(C)(CO)CNc1nc(N)nc(Cl)c1/C=N/O measured_metric=TGI data_value="> 100 µM"
compound=COc1c2occc2c(N)c2ccc(=O)oc12 measured_metric=TGI data_value="> 100 µM"
compound="Nc1ncc2c(n1)-c1ccccc1OC2N1CCCC1 (stereo unspecified)" measured_metric=TGI data_value="> 100 µM"
compound=Cc1cc(C[C@H]2O[C@@H]3OC(C)(C)O[C@@H]3[C@H]3OC(C)(C)O[C@H]32)c2ccccc2n1 measured_metric=TGI data_value="> 100 µM"
compound="COc1nc(=O)n(C2C=CC(=O)O2)cc1F (stereo unspecified)" measured_metric=TGI data_value="62.4 µM"
compound=O=c1c2c(no[n+]2[O-])c2ccccc2n1-c1ccccc1 measured_metric=TGI data_value="21.4 µM"
compound="O=c1onc2n1-c1cc(Cl)ccc1C(=S)N1CSCC21 (stereo unspecified)" measured_metric=TGI data_value="> 100 µM"
compound=CCN(C(=O)N[C@@H](C)C(=O)N[C@@H](Cc1ccccc1)C(=O)OC)c1ccccc1 measured_metric=TGI data_value="> 100 µM"
compound=Nc1c(C(=O)Nc2ccccn2)sc2nc3c(cc12)C(=O)CCC3 measured_metric=TGI data_value="> 100 µM"
compound=O=C1C(=Nc2ccc(Nc3ccccc3)cc2)Oc2ccccc21 measured_metric=TGI data_value="8.58 µM"
compound=O=C(CN1C(=O)CC(c2ccccc2)(c2ccccc2)C1=O)N1CCN(CCO)CC1 measured_metric=TGI data_value="> 100 µM"
compound=COc1ccc(-c2cc(=O)oc3c4c(ccc23)OCN(Cc2ccc(F)cc2)C4)cc1 measured_metric=TGI data_value="44.1 µM"
compound=COc1cc(O)c2c(=O)c(OC)c(-c3ccc(OC)c(O)c3)oc2c1 measured_metric=TGI data_value="> 100 µM"
